Listing of entries alongside the reported morphology score.
Test system: Vero E6 infected with SARS-CoV-2
Experiment: morphology score (similarity to uninfected cells); higher = more like uninfected cells
Conditions: 24 h

compound | target | morphology score
N=C1NC(=O)/C(=C/c2ccc(O)cc2)S1 [mirin] (10 µM) | Vero E6 infected with SARS-CoV-2 | -0.0277
C[C@@H](O)[C@H]1C(=O)N2C(C(=O)O)=C(S[C@@H]3CN[C@H](CNS(N)(=O)=O)C3)[C@H](C)[C@H]12 [doripenem] (10 µM) | Vero E6 infected with SARS-CoV-2 | 0.131
O=C(N[C@H]1CN2CCC1CC2)c1cc2cccc(Cl)c2s1 (10 µM) | Vero E6 infected with SARS-CoV-2 | 0.352
Oc1ccc2[nH]cc(C3=CCNCC3)c2n1 (10 µM) | Vero E6 infected with SARS-CoV-2 | 0.00585
Cc1ccc(NC(=O)c2ccc(CN3CCN(C)CC3)cc2)cc1Nc1nccc(-c2cccnc2)n1 [imatinib] (10 µM) | Vero E6 infected with SARS-CoV-2 | 0.738
O=C(CCCCCCC(=O)Nc1ccccc1)NO [vorinostat] (0.833333 µM) | Vero E6 infected with SARS-CoV-2 | 0.00344
CCCc1c2oc(C(=O)O)cc(=O)c2cc2c(=O)cc(C(=O)O)n(CC)c12 [nedocromil] (10 µM) | Vero E6 infected with SARS-CoV-2 | -0.0269
O=C(CCCCCCNC(=O)c1cnc(N(c2ccccc2)c2ccccc2)nc1)NO (0.833333 µM) | Vero E6 infected with SARS-CoV-2 | -0.13
CCN(CC)C(=S)S [ditiocarb-sodium-trihydrate] (10 µM) | Vero E6 infected with SARS-CoV-2 | 0.761
CCOC(=O)c1ncc2[nH]c3ccc(OCc4ccccc4)cc3c2c1COC (10 µM) | Vero E6 infected with SARS-CoV-2 | -0.0675
Nc1ccn([C@H]2C[C@H](O)[C@@H](CO)O2)c(=O)n1 [torcitabine] (10 µM) | Vero E6 infected with SARS-CoV-2 | -0.00729
OCCCNc1cc(-c2ccnc(Nc3cccc(Cl)c3)n2)ccn1 (10 µM) | Vero E6 infected with SARS-CoV-2 | -0.158
O=C(O)Cc1ccc2c(c1)C(=O)c1ccccc1CO2 [isoxepac] (10 µM) | Vero E6 infected with SARS-CoV-2 | 0.152
C[C@@H]([C@@H](O)c1ccc(O)cc1)N1CCC(O)(c2ccccc2)CC1 [traxoprodil] (10 µM) | Vero E6 infected with SARS-CoV-2 | -0.037
COc1ccc(-c2cc3nccn3c(Nc3ncccc3C(N)=O)n2)cc1OC (0.833333 µM) | Vero E6 infected with SARS-CoV-2 | 0.46
Nc1ncnc(Nc2ccc(Cl)cc2)n1 [chlorazanil] (10 µM) | Vero E6 infected with SARS-CoV-2 | 0.133
N#Cc1ccc(C(c2ccc(C#N)cc2)n2cncn2)cc1 [letrozole] (10 µM) | Vero E6 infected with SARS-CoV-2 | 0.138
Cc1cc(Nc2cc(CN3CCOCC3)c3nc(C)c(Cc4ccc(Cl)cc4F)n3n2)n[nH]1 (0.833333 µM) | Vero E6 infected with SARS-CoV-2 | -0.0116
